log10 of IC50: recorded values
- Test system: PDGFR
- method notes: Receptor tyrosine kinase inhibition, PDGFR
- Type: cell-based
- recorded conditions: W = done in Western assay; read-out: PDGFR IC50 (W)
property label: log10 of IC50 (log10 of the value in µM)

compound: c1ccc(-c2cnc3ccccc3n2)cc1
log10 of IC50: 1.00

compound: N#CC(=Cc1c[nH]c2ccccc12)C(N)=S
log10 of IC50: 0.90

compound: N#CC(=Cc1c[nH]c2ccccc12)C(N)=O
log10 of IC50: 1.48

compound: O=c1c2ccccc2nc(C=Cc2ccc(O)c(O)c2)n1CCO
log10 of IC50: 0.70

compound: CCOc1ccccc1NC(=O)C(=O)NN=Cc1ccc(O)c(O)c1
log10 of IC50: 1.00

compound: N#CC(=Cc1ccc(O)c(O)c1)C(=O)NCc1ccc(F)cc1
log10 of IC50: 1.48

compound: COc1cc2ncc(-c3ccccc3)nc2cc1OC
log10 of IC50: -0.10

compound: CC1c2nc3ccccc3c(=O)n2C(c2ccc(O)c(O)c2)N1Cc1ccccc1 (centres unmarked)
log10 of IC50: 1.40

compound: CN(C)CCCn1cc(C=C(C#N)c2[nH]nc(N)c2C#N)c2ccccc21
log10 of IC50: 1.28

compound: COc1cc2nc(Cl)c(-c3ccccc3)cc2c(OC)c1OC
log10 of IC50: 1.30

compound: CC1c2nc3ccccc3c(=O)n2C(c2cccc(O)c2)N1Cc1ccccc1 (centres unmarked)
log10 of IC50: 1.40

compound: O=C(Nc1cc(C(F)(F)F)cc(C(F)(F)F)c1)c1cccs1
log10 of IC50: 1.40

compound: Cc1cc2nc(-c3ccccc3)c(=O)[nH]c2cc1C
log10 of IC50: 1.00

compound: N#CC(=Cc1cc(O)c(O)c(Br)c1)C(=O)NCCCNC(=O)C(C#N)=Cc1cc(O)c(O)c(Br)c1
log10 of IC50: 0.48

compound: N#CC(=Cc1cc(O)c(O)c(Br)c1)S(=O)(=O)C(C#N)=Cc1cc(O)c(O)c(Br)c1
log10 of IC50: 0.00

compound: N#CC(=Cc1ccc(O)c(O)c1)c1c(C#N)c(N)nn1-c1ccccc1
log10 of IC50: 1.40

compound: COc1cc2cc(-c3ccccc3)c(Cl)nc2cc1OC
log10 of IC50: 1.00
